# Test system: Rattus norvegicus
# TEST: Distribution of [125I]iodoclebopride in thalamus after intravenous administration in rat after 1hour, expressed as percent dose/gram
# Format: ADME, organism-based
# CONDITIONS: in vivo
MEASURED ENDPOINT: Tissue distribution (%)
Use % as the unit, but write only the number.

molecule COc1cc(N=[N+]=[N-])c(I)cc1C(=O)NC1CCN(Cc2ccccc2)CC1 [IODOAZIDOCLEBOPRIDE] , Tissue distribution observed: 1.25

----------
# Test system: Rattus norvegicus
# TEST: Distribution of [125I]-AC in cerebellum after intravenous administration in rat after 2hours, expressed as percent dose/gram
# Assay type: ADME, organism-based
# CONDITIONS: in vivo
MEASURED ENDPOINT: Tissue distribution (%)
Use % as the unit, but write only the number.

compound COc1cc(N)c(I)cc1C(=O)NC1CCN(Cc2ccccc2)CC1 , Tissue distribution observed: 0.23

----------
# Tested on: Rattus norvegicus
# TEST: Distribution of [125I]iodoclebopride in striatum after intravenous administration in rat after 2hours, expressed as percent dose/gram
# Assay type: ADME, organism-based
# CONDITIONS: in vivo
MEASURED ENDPOINT: Tissue distribution

molecule COc1cc(N=[N+]=[N-])c(I)cc1C(=O)NC1CCN(Cc2ccccc2)CC1 [IODOAZIDOCLEBOPRIDE] , Tissue distribution observed: 2.52%

----------
# System: Rattus norvegicus
# TEST: Distribution of [125I]AC in blood after intravenous administration in rat after 1hour, expressed as percent dose/gram
# Assay type: ADME, organism-based
# CONDITIONS: in vivo
MEASURED ENDPOINT: Tissue distribution (%)
Use % as the unit, but write only the number.

molecule COc1cc(N)c(I)cc1C(=O)NC1CCN(Cc2ccccc2)CC1 , Tissue distribution observed: 0.33

----------
# System: Rattus norvegicus
# TEST: Distribution of [125I]AC in rest of the brain after intravenous administration in rat after 1hour, expressed as percent dose/gram
# Assay type: ADME, organism-based
# CONDITIONS: in vivo
MEASURED ENDPOINT: Tissue distribution (%)
Use % as the unit, but write only the number.

Reading of Tissue distribution for COc1cc(N)c(I)cc1C(=O)NC1CCN(Cc2ccccc2)CC1 with Rattus norvegicus: 0.18

----------
# System: Rattus norvegicus
# TEST: Distribution of [125I]iodoclebopride in thalamus after intravenous administration in rat after 2hours, expressed as percent dose/gram
# Type: ADME, organism-based
# CONDITIONS: in vivo
MEASURED ENDPOINT: Tissue distribution
Output should be the measured figure followed by the unit it is expressed in.

compound COc1cc(N=[N+]=[N-])c(I)cc1C(=O)NC1CCN(Cc2ccccc2)CC1 [IODOAZIDOCLEBOPRIDE] , Tissue distribution observed: 1.12%

----------
# System: Rattus norvegicus
# TEST: Distribution of [125I]AC in striatum after intravenous administration in rat after 2hours, expressed as percent dose/gram
# Format: ADME, organism-based
# CONDITIONS: in vivo
MEASURED ENDPOINT: Tissue distribution
Output should be the measured figure followed by the unit it is expressed in.

compound COc1cc(N)c(I)cc1C(=O)NC1CCN(Cc2ccccc2)CC1 , Tissue distribution observed: 0.38%

----------
# Test system: Rattus norvegicus
# TEST: Distribution of [125I]iodoclebopride in cerebellum after intravenous administration in rat after 1hour, expressed as percent dose/gram
# Format: ADME, organism-based
# CONDITIONS: in vivo
MEASURED ENDPOINT: Tissue distribution

compound COc1cc(N=[N+]=[N-])c(I)cc1C(=O)NC1CCN(Cc2ccccc2)CC1 [IODOAZIDOCLEBOPRIDE] , Tissue distribution observed: 1.13%

Where do these numbers come from? They come from ChEMBL document CHEMBL1122967.
